viability inhibition reference
Tested on: HCT116
TEST_SUMMARY: viability inhibition vs untreated; higher = more cytotoxic
RUN_PARAMETERS: genotype: MTA1-KO; 16 nM; 72 h
Where a name gives a salt, the structure may show the parent alone.
Express your answer in %, writing the number without its unit.

Recorded results for 5 molecules are shown here.
MOLECULE | viability inhibition / %
CC1=C(CSC(=S)N2CCCCC2)C(=O)c2ccccc2C1=O [PKM2 inhibitor] | -2.72
Cc1cc(-n2cccc2)c(S(C)(=O)=O)cc1C(=O)N=C(N)N [Eniporide] | -5.44
NC(=O)c1ncn([C@@H]2O[C@H](CO)[C@@H](O)[C@H]2O)c1N [AICAR (Acadesine)] | -0.376
N[C@@H](CSCCB(O)O)C(=O)O [BEC HCl] | 7.68
CC(=O)Nc1nnc(S(N)(=O)=O)s1 [Acetazolamide] | -8.41

Request: Which viability inhibition reading was recorded for the molecule NNC(=O)c1ccncc1 [Isoniazid] ?
Result: -5.84

Request: What value of viability inhibition has been recorded for this entry: O=C([O-])C(Cl)Cl.[Na+] [Sodium Dichloroacetate]
Result: -5.96

Request: // viability inhibition lookup, key: Cc1c(-c2cnccn2)ssc1=S [Oltipraz]
Result: -30.8

Request: Requested field: viability inhibition. Item: Cc1ccc(C(=O)Cn2c3c(sc2=N)CCCC3)cc1 [Pifithrin-α]
Result: -1.55

Request: I'd like to know its viability inhibition. The molecule in question is OC(CNc1ccccc1)Cn1c2ccc(Br)cc2c2cc(Br)ccc21 (stereo not given) [P7C3]
Result: -3.09

Request: Entry Cc1ccccc1C(=O)N1CCc2cc(-c3nc(NC(=O)Cc4ccc5c(c4)OCO5)sc3C)ccc21 [ML385] has what viability inhibition?
Result: 4.66

Request: Item c1ccc(-c2ccc(C(c3ccccc3)n3ccnc3)cc2)cc1 (stereo not given) [Bifonazole] has what recorded viability inhibition?
Result: -14.7

Request: GET /values?readout=viability inhibition&item= O=C1CC(c2c[nH]c3ccc(F)cc23)C(=O)N1 (stereo not given)
Result: 7.19

Request: Any idea what viability inhibition was measured for c1cc(-c2cnn3cc(-c4ccc(OCCN5CCCCC5)cc4)cnc23)ccn1 [Dorsomorphin] ?
Result: 1.25

Request: Need viability inhibition, item OCc1ccc(-c2nn(Cc3ccccc3)c3ccccc23)o1 [Lificiguat]
Result: -2.39

Request: Can you share its viability inhibition? I mean this molecule: CN(Cc1ccccc1)c1ccc2cc(C(=O)O)c(=O)oc2c1 [7ACC2]
Result: -27.3

Request: Look at this molecule and give its reported viability inhibition. O=C1c2cccc(O)c2C(=O)c2c(O)cccc21 [Antrapurol]
Result: 7.43

Request: Can you look up the measured viability inhibition of CC[C@H](C)C(=O)O[C@H]1C[C@@H](C)C=C2C=C[C@H](C)[C@H](CC[C@@H]3C[C@@H](O)CC(=O)O3)[C@H]21 [Lovastatin] for me?
Result: -10.2

Request: Name the recorded viability inhibition for O=C(C[C@H]1NCCC[C@@H]1O)Cn1cnc2cc(Br)c(Cl)cc2c1=O [Halofuginone hydrobromide] .
Result: 2.99

Request: Consider the molecule shown here: CC[C@H](C)C(=O)O[C@H]1CCC=C2C=C[C@H](C)[C@H](CC[C@@H]3C[C@@H](O)CC(=O)O3)[C@H]21 [Mevastatin] What is its recorded viability inhibition?
Result: -20.4

Values were extracted from the supplement of paper PMC10477900.
